Target: T1, USP38, Q8NB14
T1 chain: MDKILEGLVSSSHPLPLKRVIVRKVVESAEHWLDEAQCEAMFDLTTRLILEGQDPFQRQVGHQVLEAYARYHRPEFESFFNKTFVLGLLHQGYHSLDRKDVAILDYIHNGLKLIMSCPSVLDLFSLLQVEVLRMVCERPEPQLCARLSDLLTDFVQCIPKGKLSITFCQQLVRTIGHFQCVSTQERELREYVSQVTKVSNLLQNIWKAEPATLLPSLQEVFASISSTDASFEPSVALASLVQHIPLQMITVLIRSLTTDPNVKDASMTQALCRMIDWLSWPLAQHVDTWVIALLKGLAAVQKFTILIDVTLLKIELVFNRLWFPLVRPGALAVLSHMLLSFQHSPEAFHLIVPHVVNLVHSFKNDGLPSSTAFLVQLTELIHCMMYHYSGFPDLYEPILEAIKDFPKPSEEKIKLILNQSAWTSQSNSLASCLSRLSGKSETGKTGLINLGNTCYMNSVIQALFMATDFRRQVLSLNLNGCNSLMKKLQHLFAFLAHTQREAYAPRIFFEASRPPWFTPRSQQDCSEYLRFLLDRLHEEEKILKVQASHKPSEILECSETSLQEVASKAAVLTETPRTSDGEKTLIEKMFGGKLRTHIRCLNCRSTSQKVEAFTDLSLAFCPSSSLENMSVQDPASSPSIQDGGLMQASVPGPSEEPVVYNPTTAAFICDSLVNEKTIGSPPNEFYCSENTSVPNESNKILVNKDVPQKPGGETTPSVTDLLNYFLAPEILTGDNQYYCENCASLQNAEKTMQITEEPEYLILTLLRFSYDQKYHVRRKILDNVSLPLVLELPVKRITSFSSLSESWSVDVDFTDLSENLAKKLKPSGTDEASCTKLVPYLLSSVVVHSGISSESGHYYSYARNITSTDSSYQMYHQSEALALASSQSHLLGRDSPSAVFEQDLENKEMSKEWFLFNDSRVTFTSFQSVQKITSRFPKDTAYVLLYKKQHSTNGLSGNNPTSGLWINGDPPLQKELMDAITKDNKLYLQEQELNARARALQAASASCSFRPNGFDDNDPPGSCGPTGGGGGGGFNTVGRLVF
Assay: median log2 fold change of GCK-ALFA target abundance (FLAG IP / Myc IP barcode read proportion) (log2 ratio); each designed protein is fused to an ALFA-tag nanobody in HEK293 cells to bring the named protein to FLAG-tagged glucokinase (GCK); Myc marks an untargeted standard; higher = target protein stabilised (more abundant)
Conditions: target protein: 3xFLAG-MCP-GCK-ALFA reporter; HEK293 landing pad (RPLP)
Respond with YES for median log2 fold change values of 0.003 and above, NO for values below.

Reported median log2 fold change reaches at least 0.003 for usp_38_diff_out_24_27_505 (protein) SEELEKALEKALKLLEDIAEDLKEAQKKGPTALFVVKRKHVDEIDKLREELEKLGPELAREVTTILLAFLNRSAADPEKREEYLKEAKEKIKEAFEKHKK ? YES

Reported median log2 fold change reaches at least 0.003 for usp_38_diff_out_1_101_11 (protein) LEAELAAARAEFDAAAADLLAAARAALAEVKALGDAAAAARFARYLAAYESFIADTRRTADEIAEQDKESAIEFLKAATENLRTLKEEVEAELARIKAKL ? NO

Reported median log2 fold change reaches at least 0.003 for usp_38_diff_out_15_91_161 (protein) LESKLQAAEGTADYAKEMKAEAEKLGLEEQAKKLQEVADAAKKLAELYKKLIKLEKEGAPKEEIEKVRKEAKKLEEELNKLISEAVPYMAEILLKKQEKE ? NO

Reported median log2 fold change reaches at least 0.003 for usp_38_diff_out_17_125_214 (protein) DFEELVKKIEELLAEAEKLVKEAKKLLEEGAPPAEVRAALDKARDALGALAKALRELRRTSKDKAQAAKVIKEANEKADKLIDELTKLETEVFLREADAA ? NO

Reported median log2 fold change reaches at least 0.003 for usp_38_diff_out_20_123_456 (protein) MEKAKEEAEKLLRRAKQLVENAEQVLKFVKAGVLSEEKAEEYIKSFEEHIKYIEKEVKKLKKEYPELKELLEEVEKEIKKAKKVLKELKEAVEKRKKEEE ? YES

Reported median log2 fold change reaches at least 0.003 for usp_38_diff_out_18_28_420 (protein) MKEERLKKLEELEKRADALIDEYNELATKGFLKYHDDPSATEVLEAVNKLSDAVGAAAAAVNAMKENIDNEEAFEAEYKKFEEEEAKAKEYAEELKKLIA ? YES

Reported median log2 fold change reaches at least 0.003 for usp_38_diff_out_18_159_358 (protein) DAELLHQLNLELLKAHLKSWAENAEKKAKKTKTEVAKKVAELAKKALELFEKDPNSKEALKEILELAKEALELIKSDPSFNDRDKTSAAGLVVLAQEVLA ? YES

Reported median log2 fold change reaches at least 0.003 for usp_38_diff_out_18_14_294 (protein) SSELSEAEVSALELLKKEVREDTERTIRLLEKVKDDPERVKRIVERRQRNLAGVRAYAEEVRRRAEELGDEETVAAANELLAEIDKAEKEVEEAVKRVEA ? YES

Reported median log2 fold change reaches at least 0.003 for usp_38_diff_out_2_35_489 (protein) SEEEEEFRREARERLDKLADEVNDTTRETLEALAEADAPLEEIERVLEESDKAFKAIAEAYRLIREGASREEIEEALKKAEEKVKEFKKYAEEVLKRLKE ? YES

Reported median log2 fold change reaches at least 0.003 for usp_38_diff_out_18_14_297 (protein) SEELSEAEISNLELLKKEVEEDTERTIELLEKVKDDPERVKRIVERALRNLAGVEAYAKDVKERAEKEGNEKTVAAANELLATIEEARKRIEEKYKKVME ? YES

Reported median log2 fold change reaches at least 0.003 for usp_38_diff_out_18_14_330 (protein) SEELRKAKLSNLKSLKAEVEEVTARTLRVVERLRGDPESARALLDTRIQALDGVIKYAEEVAKEAKAAGDEELAKAAEELKEAARAARARLEAAAAALAA ? NO

Reported median log2 fold change reaches at least 0.003 for usp_38_diff_out_14_2_105 (protein) GEEEIKKATDKTLKKLEEATKKFKELKEKVKKDPSLAEEARKEAFKAWDEAGDAVGALAKLIEENKEHRATNKEATEKVNKALTEYTKAVLELLEEIAEA ? NO

Reported median log2 fold change reaches at least 0.003 for usp_38_diff_out_17_125_217 (protein) SSEELKEEIEKALKEAEELLKKAKELLEAGAPFEEIMAALDKAADALGKLAVLLRKLREESEDPAQAAKFIKEATKRADELIDEYTKLATEAFQREADAA ? NO

Reported median log2 fold change reaches at least 0.003 for usp_38_diff_out_17_26_239 (protein) SSEEKRKEAEKLLKEMEEKTEEALKEIDKLIAEGKFAEAQKLLDETIDYVTEKSTEILELASDDDELFEKVMEKIDKISDRLAAAGARLRAARRAARAAA ? NO

Reported median log2 fold change reaches at least 0.003 for usp_38_diff_out_18_28_410 (protein) KKEEIEKKIEEAEEELDKLIDEYVEVATEAFLKYHEDPSSEELLEKVRELADELGKAAKAVNEMRENKDNEEKVEEELEKFKKHKEEAEKLLKEVKELIK ? NO

Reported median log2 fold change reaches at least 0.003 for usp_38_diff_out_18_28_371 (protein) SAAERAALEARLAALEAELDALIDELVELAKEVYEEHADDEEKLALLDAAWDALGRAAGLLRRARELLREGGDPAEVAALLDAAEAALAEAKALLAELKK ? NO

Reported median log2 fold change reaches at least 0.003 for usp_38_diff_out_18_28_365 (protein) SEEERRELERRLEELTRRLDELIDEATEAATEALTAHPDDEEVWELVDRLFDALGAAAAALNRARELLREGGPLEEVEEELEEAERHLREAERLLEELRE ? YES
